Below are IC50 values measured for thrombin (Homo sapiens).
measure: IC50 (µM)

Look over these answered cases.
compound	IC50 / µM
N=C(N)Nc1ccc(C(=O)Oc2cc(Cl)cc(Cl)c2)cc1 [Comp. Ex. 2, reference compound]	0.88
N=C(N)Nc1ccc(C(=O)Oc2ccc(OC(F)(F)F)cc2)cc1 [Compound 3]	0.039
CC1(C(=O)Oc2cc(Cl)cc(OC(=O)c3ccc(NC(=N)N)cc3)c2)CC1 [Compound 26]	0.069

I. N=C(N)Nc1ccc(C(=O)Oc2cccc(OC(F)(F)F)c2)cc1 [Compound 2]
II. CON=C(C)c1cccc(OC(=O)c2ccc(NC(=N)N)cc2)c1 [Compound 10]
# returns the entry with the larger IC50; inputs I and II Pick one and reply with its label.
II
(II: 0.14 µM, I: 0.077 µM)

* * *

- tested-system: plasmin (Homo sapiens, UniProt P00747)
- Sequence (P00747 581-810 limits assumed, species assumed): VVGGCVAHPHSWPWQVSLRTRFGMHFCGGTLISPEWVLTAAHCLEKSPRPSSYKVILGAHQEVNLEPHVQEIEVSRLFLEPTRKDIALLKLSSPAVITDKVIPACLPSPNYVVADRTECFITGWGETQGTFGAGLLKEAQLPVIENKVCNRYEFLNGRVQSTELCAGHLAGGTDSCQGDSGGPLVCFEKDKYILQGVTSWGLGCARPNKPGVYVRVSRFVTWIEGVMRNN
- Sequence (P00747 97-580 partner limits assumed, species assumed): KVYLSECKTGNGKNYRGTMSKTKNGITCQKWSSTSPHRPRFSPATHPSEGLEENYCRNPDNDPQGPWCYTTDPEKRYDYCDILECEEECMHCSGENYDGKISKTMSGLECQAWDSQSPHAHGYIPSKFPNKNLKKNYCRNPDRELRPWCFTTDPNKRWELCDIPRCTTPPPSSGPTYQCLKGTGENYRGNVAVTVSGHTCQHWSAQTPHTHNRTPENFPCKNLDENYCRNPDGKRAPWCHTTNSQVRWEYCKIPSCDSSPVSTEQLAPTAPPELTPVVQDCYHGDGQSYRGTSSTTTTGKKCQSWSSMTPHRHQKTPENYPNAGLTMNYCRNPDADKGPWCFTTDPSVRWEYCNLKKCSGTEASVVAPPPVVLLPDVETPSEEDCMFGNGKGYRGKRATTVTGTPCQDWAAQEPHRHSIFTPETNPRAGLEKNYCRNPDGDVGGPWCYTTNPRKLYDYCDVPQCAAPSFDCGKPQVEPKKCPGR
- protocol-summary: in vitro plasmin inhibition, substrate Boc-Val-Leu-Lys-7-amido-4-methylcoumalin
- Format: biochemical
measure: pIC50
API: returns pIC50 as number; meaning -log10 of concentration in mol/L.

Bench note: what pIC50 did CN(C)C(=O)COC(=O)Cc1ccc(OC(=O)c2ccc(NC(=N)N)cc2)cc1 [Comp. Ex. 1, reference compound] show?
6.92

* * *

pIC50: −log10 of the molar value.
Observed pIC50, system factor Xa (Homo sapiens, UniProt P00742).
measure: pIC50

// worked examples, pIC50 included
compound	pIC50
CS(=O)(=O)O.N=C(N)Nc1ccc(C(=O)Oc2cc(Cl)cc(OS(=O)(=O)C=Cc3ccccc3)c2)cc1	6.80
CN(C)C(=O)COC(=O)Cc1ccc(OC(=O)c2ccc(NC(=N)N)cc2)cc1 [Comp. Ex. 1, reference compound]	4.25

a. N=C(N)Nc1ccc(C(=O)Oc2cc(Cl)cc(Cl)c2)cc1 [Comp. Ex. 2, reference compound]
b. CON=C(C)c1cccc(OC(=O)c2ccc(NC(=N)N)cc2)c1
# returns the entry with the larger pIC50; inputs a and b Label of pick, please.
b
(b: 5.60, a: 5.07)
